Target: T1, cynomolgus monkey PVRIG on FlpinCHO-cyno PVRIG cells (cynomolgus monkey, UniProt A0A2K5WVV8 41-322)
T1 construct: whole, on cells
T1 sequence: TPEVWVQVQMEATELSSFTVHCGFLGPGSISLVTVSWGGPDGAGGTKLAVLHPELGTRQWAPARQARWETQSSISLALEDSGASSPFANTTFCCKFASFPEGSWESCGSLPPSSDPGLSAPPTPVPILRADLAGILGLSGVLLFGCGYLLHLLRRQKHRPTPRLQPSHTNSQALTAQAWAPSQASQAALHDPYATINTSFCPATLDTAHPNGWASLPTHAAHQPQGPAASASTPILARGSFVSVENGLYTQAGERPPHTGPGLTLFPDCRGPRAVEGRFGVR
Experiment: FACS, FlpinCHO-cyno PVRIG cells
Description: The antibodies were diluted from the highest concentration of 46 nM (two-fold concentration) with staining buffer by 3.3-fold serial dilution. The diluted antibodies were added to the well containing 50 μL of cell suspension. […] After staining, the cells were washed twice with staining buffer, finally resuspended with 200 μL staining buffer and analyzed by flow cytometry (BD, Canto II). […] The AUC value of the curve was calculated by using a Four Parameter Logistic Fit (GraphPadPrism9). […]
value_type: AUC % to SRF813-hIgG1 (%)
Numeric answer only, unit % assumed.

Reference set, count: 3
The reported AUC % to SRF813-hIgG1 of the binder PVRIG-A118 (Fc fusion, heavy chain antibody VHH-hinge-CH2-CH3, human IgG1 constant part; not shown: human IgG1 hinge-CH2-CH3) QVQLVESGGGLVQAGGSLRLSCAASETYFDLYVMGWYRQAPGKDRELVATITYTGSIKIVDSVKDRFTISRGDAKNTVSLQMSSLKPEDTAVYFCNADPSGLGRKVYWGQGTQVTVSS was 76.1

The reported AUC % to SRF813-hIgG1 of the binder PVRIG-A50 (Fc fusion, heavy chain antibody VHH-hinge-CH2-CH3, human IgG1 constant part; also called PVRIG-50; not shown: human IgG1 hinge-CH2-CH3) EVQLVESGGGLVQPGGSLRLSCAASGFTFSYYDMSWVRQAPGKGLEWVSTINSNGGRTSYVDSVKGRFTISRDNTKNTLYLQMNSLKPEDTAVYYCVEGDPHNFGLENLSLRDFGSWGQGTQVTVSS was 57.8

The reported AUC % to SRF813-hIgG1 of the binder PVRIG-A118-H7 (Fc fusion, humanized variant of PVRIG-A118; also called A118.VH7; not shown: constant part not restated for the humanized forms; parents are VHH-hinge-CH2-CH3 of human IgG1; detected by anti-human) EVQLVESGGGLVQPGGSLRLSCAASETYFDLYVMGWYRQAPGKDRELVATITYTGSIKYVDSVKGRFTISRGDAKNSLYLQMNSLRAEDTAVYFCNADPSGLGRKVYWGQGTMVTVSS was 24

Now take the following binder into account.
The reported AUC % to SRF813-hIgG1 of the binder PVRIG-A50-H1c (Fc fusion, humanized variant of PVRIG-A50; also called A50.VH1c; not shown: constant part not restated for the humanized forms; parents are VHH-hinge-CH2-CH3 of human IgG1; detected by anti-human) EVQLVESGGGLVQPGGSLRLSCAASGFTFSYYDMSWVRQAPGKGLEWVSTINSDGGRTSYVDSVKGRFTISRDNSKNTLYLQMNSLRAEDTAVYYCVEGDPHNFGLENLALRDFGSWGQGTMVTVSS was 47.6

Origin of measurements: patent US20240343803A1
